// merged dataset of pIC50 values, system = Mast/stem cell growth factor receptor Kit (Homo sapiens, UniProt P10721), multiple refs
pIC50: −log10 of the molar value.

>>> measured("Nc1cccc(-c2cnc3[nH]cc(Cc4ccccc4F)c3c2)c1")
"≥ 5.00"

Problem: Short answer please: pIC50, Mast/stem cell growth factor receptor Kit (Homo sapiens, UniProt P10721), entry "Cc1cccc(NC(=O)Nc2cccc(C(=O)c3c[nH]c4ncccc34)c2)c1"
Result: ≥ 5.00

Problem: Kindly state the measured pIC50 obtained for "CCc1ccc(S(=O)(=O)Nc2ccc(F)c(C(=O)c3c[nH]c4ncc(Cl)cc34)c2F)cc1" with Mast/stem cell growth factor receptor Kit (Homo sapiens, UniProt P10721).
Result: ≥ 5.00

Problem: Under Mast/stem cell growth factor receptor Kit (Homo sapiens, UniProt P10721): pIC50 value of "O=C(Nc1cccc(C(=O)c2c[nH]c3ncc(Cl)cc23)c1)Nc1ccc(C(F)(F)F)cc1Cl" ?
Result: ≥ 5.00

Problem: // lookup pIC50 | system=Mast/stem cell growth factor receptor Kit (Homo sapiens, UniProt P10721) | key= "COc1cc2c(Oc3ccc(NC(=O)C4(C(=O)Nc5ccc(F)cc5)CC4)cc3)ccnc2cc1N1CCNC1=O"
Result: > 7.00

Problem: For Mast/stem cell growth factor receptor Kit (Homo sapiens, UniProt P10721), provide pIC50 of "O=C(c1ccc(NC2CCC(F)(F)CC2)nc1Cl)c1c[nH]c2ncnc(NCC(F)(F)F)c12" please.
Result: < 6.00

Problem: Form: Entry = "O=C(c1ccccc1)c1c[nH]c2ncc(Br)cc12" | System = Mast/stem cell growth factor receptor Kit (Homo sapiens, UniProt P10721) | pIC50 = ____
Result: ≥ 5.00

Problem: Value wanted: pIC50 (Mast/stem cell growth factor receptor Kit (Homo sapiens, UniProt P10721)) of entry "CS(=O)(=O)Nc1ccc(F)c(C(=O)c2c[nH]c3ncc(-c4cccc(C(N)=O)c4)cc23)c1F"
Result: ≥ 5.00

---

Across several studies, compounds have been characterized by their IC50 on Mast/stem cell growth factor receptor Kit (Homo sapiens, UniProt P10721); a selection follows.

>>> measured("O=C(c1cc(O)ccc1F)c1c[nH]c2ncc(-c3cccnc3)cc12")
"≤ 10 µM"
>>> measured("Cc1cnc2[nH]cc(C(=O)c3c(F)ccc(NS(=O)(=O)CC(C)C)c3F)c2c1")
"≤ 10 µM"
>>> measured("CCOc1ccc(Nc2ccc(C(=O)c3c[nH]c4ncnc(C)c34)c(F)n2)cn1")
"< 0.1 µM"
>>> measured("COc1cccc(Cc2c[nH]c3ncc(Br)cc23)c1")
"≤ 10 µM"
>>> measured("O=C(c1cccc(F)c1)c1c[nH]c2ncc(Br)cc12")
"≤ 10 µM"

Problem: Checklist item: IC50 tested on Mast/stem cell growth factor receptor Kit (Homo sapiens, UniProt P10721), entry "Cn1cc(-c2cnc3[nH]cc(C(=O)c4cccc(NS(=O)(=O)c5cccnc5)c4)c3c2)cn1" , value?
Result: ≤ 10 µM

Problem: Entry "CNc1ncnc2[nH]cc(C(=O)c3ccc(Nc4ccc(C(F)(F)F)nc4)nc3F)c12" , system Mast/stem cell growth factor receptor Kit (Homo sapiens, UniProt P10721): what IC50 was measured?
Result: < 0.1 µM

Problem: Which IC50 is reported with Mast/stem cell growth factor receptor Kit (Homo sapiens, UniProt P10721) for this entry: "COc1cccc(C(=O)c2c[nH]c3ncc(Br)cc23)c1F" ?
Result: ≤ 10 µM

Problem: Field: IC50 (Mast/stem cell growth factor receptor Kit (Homo sapiens, UniProt P10721)). Entry: "CCCS(=O)(=O)Nc1cccc(C(=O)c2c[nH]c3ncc(-c4cnn(C)c4)cc23)c1"
Result: ≤ 10 µM

Problem: Given the entry "CCNc1ccn(-c2ccc(F)cc2)c(=O)c1C(=O)Nc1cc(F)c(Oc2ccnc(-c3cnn(C)c3)c2)cc1F" , what IC50 was observed with Mast/stem cell growth factor receptor Kit (Homo sapiens, UniProt P10721)?
Result: > 1 µM

Problem: Item: "Cc1cnc2[nH]cc(Cc3cnc(Nc4cc(-c5ccc(F)cc5)n[nH]4)nc3)c2c1" Test system: Mast/stem cell growth factor receptor Kit (Homo sapiens, UniProt P10721) Read-out: IC50 Value: ?
Result: < 1 µM

Problem: Form field: IC50 recorded for "O=C(NCc1cccc(-c2cncc3ccccc23)c1)Nc1ccc(Cl)c(C(F)(F)F)c1" with Mast/stem cell growth factor receptor Kit (Homo sapiens, UniProt P10721) (enter value)
Result: 0.5 to 5 µM
